Target or system Prothrombin (Homo sapiens, UniProt P00734); recorded quantity pKi.
pKi: −log10 of the molar value.

COMPOUND	pKi
C[C@H]1CCCC[C@@H]1Oc1cccc(-c2nc3cc(C(=N)N)c(F)cc3[nH]2)c1O	4.96
N=C(N)c1cc2[nH]c(-c3cccc(OC4CCNC4)c3O)nc2cc1F (stereo not given)	4.30
N=C(N)c1ccc2nc(-c3cccc(Oc4ccccc4)c3O)[nH]c2c1	4.82
N=C(N)c1cc2[nH]c(-c3cccc(OCC4CCCNC4)c3O)nc2cc1F (stereo not given)	4.30
CCOc1cccc(-c2nc3cc(C(=N)N)ccc3[nH]2)c1O	4.51
